substances and their reported TMV efficacy
system: TMV; experiment: Induction of systemic acquired resistance (SAR), TMV lesions on tobacco; assay type: in vivo, Nicotiana tabacum; settings: oligopeptides, Table 5; reduction in TMV lesions vs buffer control
Form entry: value (%) — number only.

- Substance: "oligo 137-156: synthesized oligopeptide, amino acids 137-156 of SEQ ID NO: 23 (STSQNDDSTSGTDSTSDSSD; listed as Erwinia amylovora)"
  Value: "−87.7"

I am curious: what TMV efficacy value has been reported for oligo 137-166: synthesized oligopeptide, amino acids 137-166 of SEQ ID NO: 23 (STSQNDDSTSGTDSTSDSSDPMQQLLKMFS; listed as Erwinia amylovora) ? 61.2

I am curious: what TMV efficacy value has been reported for oligo 150-179: synthesized oligopeptide, amino acids 150-179 of SEQ ID NO: 23 (STSDSSDPMQQLLKMFSEIMQSLFGDGQDG; listed as Erwinia amylovora) ? 72.9

I am curious: what TMV efficacy value has been reported for oligo 121-150: synthesized oligopeptide, amino acids 121-150 of SEQ ID NO: 23 (TTSTTNSPLDQALGINSTSQNDDSTSGTDS; listed as Erwinia amylovora) ? 60.0

Recorded values, source patent US6858707B1.
